# procedure-text: Apparent permeability across human Caco2 cells after 120 mins by HPLC analysis
# Assay type: ADME, cell-based
# test-parameters: Caco-2
Assign class by Papp at 2 h: not lower than 2 ×10⁻⁶ cm/s means criterion met; lower than 2 ×10⁻⁶ cm/s means criterion not met.

{"chemical-string": "COC(=O)c1ccc(-c2cc(Cl)c(O[C@H]3O[C@H](CO)[C@@H](O)[C@H](O)[C@@H]3O)c(Cl)c2)cc1", "answer-label": "criterion met"}
{"chemical-string": "O=C([O-])c1ccc(-c2ccc(Cl)c(O[C@H]3O[C@H](CO)[C@@H](O)[C@H](O)[C@@H]3O)c2)cc1.[Na+]", "answer-label": "criterion not met"}
{"chemical-string": "COC(=O)c1ccc(-c2ccc(Cl)c(O[C@H]3O[C@H](CO)[C@@H](O)[C@H](O)[C@@H]3O)c2)cc1", "answer-label": "criterion not met"}
{"chemical-string": "COC(=O)c1ccc(-c2cccc(O[C@H]3O[C@H](CO)[C@@H](O)[C@H](O)[C@@H]3O)c2)cc1", "answer-label": "criterion met"}
{"chemical-string": "COC(=O)c1ccc(-c2c(Cl)cc(O[C@H]3O[C@H](CO)[C@@H](O)[C@H](O)[C@@H]3O)cc2Cl)cc1", "answer-label": "criterion met"}
{"chemical-string": "COC(=O)c1ccc(-c2ccc(O[C@H]3O[C@H](CO)[C@@H](O)[C@H](O)[C@@H]3O)cc2)cc1", "answer-label": "criterion met"}

====

# procedure-text: AUC (0 to 24 hrs) in urine of urinary tract infection C3H/HeN mouse model at 50 mg/kg, po administered as single dose measured after 6 hrs by LC-MS analysis
# Assay type: ADME, organism-based
# Set-up: time < 24 hr, dose 50 mg/kg, route oral
observation-type: AUC(0-t) at 24 h (ng·h/mL)

{"chemical-string": "O=C([O-])c1ccc(-c2ccc(O[C@H]3O[C@H](CO)[C@@H](O)[C@H](O)[C@@H]3O)c(Cl)c2)cc1.[Na+]", "experimental-result": 2700}
{"chemical-string": "COC(=O)c1ccc(-c2ccc(O[C@H]3O[C@H](CO)[C@@H](O)[C@H](O)[C@@H]3O)c(Cl)c2)cc1", "experimental-result": 1890}

====

# procedure-text: AUC (0 to 24 hrs) in urine of urinary tract infection C3H/HeN mouse model at 50 mg/kg, iv administered as single dose measured after 6 hrs by LC-MS analysis
# Format: ADME, organism-based
# Parameters: time < 24 hr, dose 50 mg/kg, route intravenous
Known AUC(0-t) at 24 h of a selection of compounds
observation-type: AUC(0-t) at 24 h (µg·h/mL)

{"chemical-string": "CCCCCCCO[C@H]1O[C@H](CO)[C@@H](O)[C@H](O)[C@@H]1O", "endpoint-unit": "µg·h/mL", "experimental-result": 2470}
{"chemical-string": "O=C([O-])c1ccc(-c2ccc(O[C@H]3O[C@H](CO)[C@@H](O)[C@H](O)[C@@H]3O)cc2)cc1.[Na+]", "endpoint-unit": "µg·h/mL", "experimental-result": 140}
{"chemical-string": "O=C([O-])c1ccc(-c2ccc(O[C@H]3O[C@H](CO)[C@@H](O)[C@H](O)[C@@H]3O)c(Cl)c2)cc1.[Na+]", "endpoint-unit": "µg·h/mL", "experimental-result": 210}

====

# procedure-text: Stability of the compound in simulated intestinal fluid assessed as compound remaining after 2 hrs by LC-MS analysis
# Format: physicochemical
# test-parameters: read-out: Stability
Known remaining at 2 h of a selection of compounds
observation-type: remaining at 2 h (%)

{"chemical-string": "CCCCCCCO[C@H]1O[C@H](CO)[C@@H](O)[C@H](O)[C@@H]1O", "experimental-result": 80}
{"chemical-string": "O=C([O-])c1ccc(-c2ccc(O[C@H]3O[C@H](CO)[C@@H](O)[C@H](O)[C@@H]3O)c(Cl)c2)cc1.[Na+]", "experimental-result": 80}
{"chemical-string": "COC(=O)c1ccc(-c2ccc(O[C@H]3O[C@H](CO)[C@@H](O)[C@H](O)[C@@H]3O)c(Cl)c2)cc1", "experimental-result": 80}

====

# procedure-text: AUC (0 to 24 hrs) in plasma of urinary tract infection C3H/HeN mouse model at 50 mg/kg, po administered as single dose measured after 6 hrs by LC-MS analysis
# Assay type: ADME, organism-based
# Design: time < 24 hr, dose 50 mg/kg, route oral

{"chemical-string": "COC(=O)c1ccc(-c2ccc(O[C@H]3O[C@H](CO)[C@@H](O)[C@H](O)[C@@H]3O)c(Cl)c2)cc1", "endpoint-unit": "ng·h/mL", "AUC(0-t) at 24 h": 1020}

====

# procedure-text: Plasma protein binding […] by LC-MS analysis
# Assay type: ADME, cell-free
# test-parameters: read-out: PPB (converted)
observation-type: fraction unbound

{"chemical-string": "O=C([O-])c1ccc(-c2ccc(O[C@H]3O[C@H](CO)[C@@H](O)[C@H](O)[C@@H]3O)cc2)cc1.[Na+]", "experimental-result": 0.27}
{"chemical-string": "CCCCCCCO[C@H]1O[C@H](CO)[C@@H](O)[C@H](O)[C@@H]1O", "experimental-result": 0.19}

====

# procedure-text: Lipophilicity, log D at pH 7.4 by miniatured shake flask method
# Assay type: physicochemical
# test-parameters: buffer
Labelling field: enter yes (1) if recorded logD is less than 2. Enter no (0) if it equals or exceeds that cut-off.

{"chemical-string": "O=C([O-])c1ccc(-c2ccc(O[C@H]3O[C@H](CO)[C@@H](O)[C@H](O)[C@@H]3O)c(Cl)c2)cc1.[Na+]", "answer-label": "yes (1)"}
{"chemical-string": "COC(=O)c1ccc(-c2cc(Cl)c(O[C@H]3O[C@H](CO)[C@@H](O)[C@H](O)[C@@H]3O)c(Cl)c2)cc1", "answer-label": "no (0)"}
{"chemical-string": "COC(=O)c1ccc(-c2ccc(Cl)c(O[C@H]3O[C@H](CO)[C@@H](O)[C@H](O)[C@@H]3O)c2)cc1", "answer-label": "yes (1)"}
{"chemical-string": "COC(=O)c1ccc(-c2ccc(O[C@H]3O[C@H](CO)[C@@H](O)[C@H](O)[C@@H]3O)cc2Cl)cc1", "answer-label": "no (0)"}
{"chemical-string": "O=C([O-])c1ccc(-c2ccc(O[C@H]3O[C@H](CO)[C@@H](O)[C@H](O)[C@@H]3O)cc2Cl)cc1.[Na+]", "answer-label": "yes (1)"}
{"chemical-string": "O=C([O-])c1ccc(-c2cccc(O[C@H]3O[C@H](CO)[C@@H](O)[C@H](O)[C@@H]3O)c2)cc1.[Na+]", "answer-label": "yes (1)"}
{"chemical-string": "CCCCCCCO[C@H]1O[C@H](CO)[C@@H](O)[C@H](O)[C@@H]1O", "answer-label": "yes (1)"}

====

# procedure-text: Permeability coefficient, log Pe of the compound by PAMPA method
# Type: ADME

{"chemical-string": "O=C([O-])c1ccc(-c2ccc(Cl)c(O[C@H]3O[C@H](CO)[C@@H](O)[C@H](O)[C@@H]3O)c2)cc1.[Na+]", "permeability": "impermeable"}
{"chemical-string": "O=C([O-])c1ccc(-c2ccc(O[C@H]3O[C@H](CO)[C@@H](O)[C@H](O)[C@@H]3O)c(Cl)c2)cc1.[Na+]", "permeability": "impermeable"}
{"chemical-string": "O=C([O-])c1ccc(-c2ccc(O[C@H]3O[C@H](CO)[C@@H](O)[C@H](O)[C@@H]3O)cc2)cc1.[Na+]", "permeability": "impermeable"}
{"chemical-string": "O=C([O-])c1ccc(-c2cccc(O[C@H]3O[C@H](CO)[C@@H](O)[C@H](O)[C@@H]3O)c2)cc1.[Na+]", "permeability": "impermeable"}
{"chemical-string": "O=C([O-])c1ccc(-c2ccc(O[C@H]3O[C@H](CO)[C@@H](O)[C@H](O)[C@@H]3O)cc2Cl)cc1.[Na+]", "permeability": "impermeable"}

====

Known pKa of a selection of molecules
# procedure-text: Dissociation constant, pKa of the compound by NMR spectrometric analysis
# Format: physicochemical

{"chemical-string": "O=C([O-])c1ccc(-c2ccc(O[C@H]3O[C@H](CO)[C@@H](O)[C@H](O)[C@@H]3O)c(Cl)c2)cc1.[Na+]", "pKa": 3.98}
{"chemical-string": "O=C([O-])c1ccc(-c2ccc(O[C@H]3O[C@H](CO)[C@@H](O)[C@H](O)[C@@H]3O)cc2Cl)cc1.[Na+]", "pKa": 3.95}
{"chemical-string": "O=C([O-])c1ccc(-c2cccc(O[C@H]3O[C@H](CO)[C@@H](O)[C@H](O)[C@@H]3O)c2)cc1.[Na+]", "pKa": 3.6}
{"chemical-string": "O=C([O-])c1ccc(-c2ccc(Cl)c(O[C@H]3O[C@H](CO)[C@@H](O)[C@H](O)[C@@H]3O)c2)cc1.[Na+]", "pKa": 3.41}
{"chemical-string": "O=C([O-])c1ccc(-c2ccc(O[C@H]3O[C@H](CO)[C@@H](O)[C@H](O)[C@@H]3O)cc2)cc1.[Na+]", "pKa": 3.88}
